Listed here: items and their measured Percent Effect.
# EXPERIMENTAL_SYSTEM: Arginase-2, mitochondrial (Homo sapiens) (UniProt P78540)
# Sequence (whole entry): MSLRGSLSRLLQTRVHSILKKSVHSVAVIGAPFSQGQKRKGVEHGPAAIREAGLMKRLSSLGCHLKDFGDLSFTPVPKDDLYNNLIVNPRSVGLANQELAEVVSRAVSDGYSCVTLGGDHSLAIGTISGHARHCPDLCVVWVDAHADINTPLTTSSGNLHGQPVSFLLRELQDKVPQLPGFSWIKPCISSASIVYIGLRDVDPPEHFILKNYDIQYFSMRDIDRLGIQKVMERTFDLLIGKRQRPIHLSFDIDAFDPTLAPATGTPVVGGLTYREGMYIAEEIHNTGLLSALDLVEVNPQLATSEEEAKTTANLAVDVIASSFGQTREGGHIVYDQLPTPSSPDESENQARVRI
# EXPERIMENT_NOTES: in vitro enzyme assay to detect the production of urea directly proportional to the activity of Arginase II; further: in the data most compounds retested in dose-response had high values
# Type: functional
# Set-up: scale not given: direction of the effect not stated beside the values
# CONDITIONS: 30 µM

COMPOUND | UNIT_ABBREV | Percent Effect
Cn1cc(CC2CCN(C(=O)NCCc3cccc(O)c3)C2)cn1 (centres undefined) | % | 5.95
Cn1cc(CN(Cc2ccccc2)CC(O)c2cccs2)cn1 (centres undefined) | % | 7.03
Cc1cc(CNC(=O)N2CCN(c3ccccc3)CC2)no1 | % | 3.78
CN(C)CCCNC(=O)c1cc(Br)c2c(c1)OCCO2 | % | -0.54

----------
# EXPERIMENTAL_SYSTEM: Chromo domain-containing protein 1 (Saccharomyces cerevisiae (strain ATCC 204508 / S288c) (Baker's yeast)) (UniProt P32657)
# Sequence (P32657 whole entry, the tested form may be a part): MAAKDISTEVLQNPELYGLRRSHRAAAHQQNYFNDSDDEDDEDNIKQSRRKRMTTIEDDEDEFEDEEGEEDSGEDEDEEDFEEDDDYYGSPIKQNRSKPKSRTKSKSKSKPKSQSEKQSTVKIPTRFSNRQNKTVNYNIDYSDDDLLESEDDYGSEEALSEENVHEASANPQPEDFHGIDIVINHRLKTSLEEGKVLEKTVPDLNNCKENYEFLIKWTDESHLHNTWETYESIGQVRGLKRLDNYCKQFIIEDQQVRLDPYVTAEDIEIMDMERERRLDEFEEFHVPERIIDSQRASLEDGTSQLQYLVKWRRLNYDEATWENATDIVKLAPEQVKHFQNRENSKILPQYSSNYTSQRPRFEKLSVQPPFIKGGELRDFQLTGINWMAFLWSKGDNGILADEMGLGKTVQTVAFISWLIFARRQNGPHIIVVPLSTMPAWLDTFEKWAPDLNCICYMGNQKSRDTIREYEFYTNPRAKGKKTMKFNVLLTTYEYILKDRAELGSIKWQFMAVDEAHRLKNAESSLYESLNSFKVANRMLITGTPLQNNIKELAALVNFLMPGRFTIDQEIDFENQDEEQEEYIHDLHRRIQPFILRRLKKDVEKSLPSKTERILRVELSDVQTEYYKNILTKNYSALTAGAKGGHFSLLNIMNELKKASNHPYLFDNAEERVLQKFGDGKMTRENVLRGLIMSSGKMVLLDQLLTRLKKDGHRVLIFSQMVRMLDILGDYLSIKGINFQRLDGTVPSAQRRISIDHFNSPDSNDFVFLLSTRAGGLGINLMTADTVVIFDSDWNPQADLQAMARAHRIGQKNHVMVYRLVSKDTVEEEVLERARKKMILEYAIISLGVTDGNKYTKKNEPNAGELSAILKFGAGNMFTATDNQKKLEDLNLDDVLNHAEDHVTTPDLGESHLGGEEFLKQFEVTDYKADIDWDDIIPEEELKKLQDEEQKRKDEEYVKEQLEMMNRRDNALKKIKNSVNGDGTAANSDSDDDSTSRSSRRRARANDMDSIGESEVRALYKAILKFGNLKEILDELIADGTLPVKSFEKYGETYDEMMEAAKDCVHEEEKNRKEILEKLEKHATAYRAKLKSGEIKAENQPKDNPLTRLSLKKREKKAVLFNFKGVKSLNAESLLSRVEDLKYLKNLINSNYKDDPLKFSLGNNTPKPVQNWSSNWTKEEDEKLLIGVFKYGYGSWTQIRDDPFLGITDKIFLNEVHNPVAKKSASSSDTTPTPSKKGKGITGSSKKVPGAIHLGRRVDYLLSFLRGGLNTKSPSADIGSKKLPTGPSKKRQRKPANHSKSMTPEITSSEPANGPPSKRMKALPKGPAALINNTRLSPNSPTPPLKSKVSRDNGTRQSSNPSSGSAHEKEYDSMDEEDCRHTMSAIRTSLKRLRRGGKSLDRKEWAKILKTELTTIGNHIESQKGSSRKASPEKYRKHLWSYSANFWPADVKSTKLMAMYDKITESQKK
# EXPERIMENT_NOTES: ScCHD-1 Enzyme Inhibition Assay; further: in the data most compounds retested in dose-response had high values
# Format: functional
# Set-up: scale not given: direction of the effect not stated beside the values
# CONDITIONS: 30 µM
Listing of entries alongside the reported Percent Effect.
MEASUREMENT_TYPE: Percent Effect (%)

COMPOUND | READOUT_NUMBER
Cc1cc(CN(C)Cc2cc3c(cc2OC(F)F)OCO3)on1 | -2.37
COc1cccc(CN2C[C@@H]3COC[C@]3(COCc3ccncc3)C2)c1 | -0.65
O=C(CSc1ccccc1Cl)NS(=O)(=O)c1ccc2c(c1)OCCO2 | -10.3
O=C(NCc1ccccn1)[C@@H]1COC[C@H]2CN(C3CCOCC3)C[C@H]21 | -2.43
Cc1nc(CC(=O)N2CCC[C@H]2c2nc(C(C)C)no2)cs1 | -0.504
Cc1nn(C)c(C)c1CC(=O)N1CCC(Nc2cccnn2)CC1 | -11.7
Cc1nn(C)c(N(C)C)c1CNC1CCc2c(F)cccc21 (centres undefined) | -6.66
O=C(c1nc(-c2ccc3cc[nH]c3c2)no1)N1CCCC1 | -3.18
COc1ccc(OC)c(CNCCc2cc(F)cc3c2OCOC3)c1 | -2.06
CC(C)c1csc(C2CCCN(C(=O)c3ncccn3)C2)n1 (centres undefined) | -2.9
Cc1nnc2n1CCN(C(=O)c1cn(-c3ccccc3Cl)nn1)C2 | -2.71
CC(C)c1nnc(NC(=O)NCc2ccnc(N(C)C)c2)s1 | -17.6
Cc1ccc(S(=O)(=O)N2CCc3nc(C4CCNCC4)ncc3C2)cc1 | -21.4
COc1ccc(NC(=O)C2CCOC2)c(N2CCN(C(C)=O)CC2)n1 (centres undefined) | -5.79
CC(C)C(Sc1nnnn1-c1ccccc1)C(=O)NCc1cccnc1 (centres undefined) | -8.86
Cc1cc(C)cc(OCCC(=O)N2CCOCC2c2ncon2)c1 (centres undefined) | 0.318
CC(C)c1cc(NC(=O)CN2CCc3ccccc3C2)on1 | -12.1
CN(CC1(O)CCCN(CCC2CCCCC2)C1=O)C1CCOCC1 (centres undefined) | -3.45
CCCC(NC(=O)c1cc(C)n(C2CC2)c1C)c1nnn[nH]1 (centres undefined) | -4.79
CCc1cccc(OCC(=O)N2CCCC(n3cncn3)C2)c1 (centres undefined) | -4.63
CS(=O)(=O)NCCCNC(=O)c1cccc(-n2cccc2)c1 | -6.62
COc1ccc(C2(CNC(C)c3nnc(C)o3)CCCCC2)cc1 (centres undefined) | 0.233
CC1=N[C@@]2(CC[C@@H]3CN(Cc4ccccc4F)C[C@@H]32)C(=O)N1CC1CC1 | 1.49
CCn1nccc1CNC(=O)C(C)n1cc2c(n1)c(C)nn2C (centres undefined) | -12.4

----------
# EXPERIMENTAL_SYSTEM: Protein translocase subunit SecA (Escherichia coli (strain K12)) (UniProt P10408)
# Sequence (P10408 whole entry): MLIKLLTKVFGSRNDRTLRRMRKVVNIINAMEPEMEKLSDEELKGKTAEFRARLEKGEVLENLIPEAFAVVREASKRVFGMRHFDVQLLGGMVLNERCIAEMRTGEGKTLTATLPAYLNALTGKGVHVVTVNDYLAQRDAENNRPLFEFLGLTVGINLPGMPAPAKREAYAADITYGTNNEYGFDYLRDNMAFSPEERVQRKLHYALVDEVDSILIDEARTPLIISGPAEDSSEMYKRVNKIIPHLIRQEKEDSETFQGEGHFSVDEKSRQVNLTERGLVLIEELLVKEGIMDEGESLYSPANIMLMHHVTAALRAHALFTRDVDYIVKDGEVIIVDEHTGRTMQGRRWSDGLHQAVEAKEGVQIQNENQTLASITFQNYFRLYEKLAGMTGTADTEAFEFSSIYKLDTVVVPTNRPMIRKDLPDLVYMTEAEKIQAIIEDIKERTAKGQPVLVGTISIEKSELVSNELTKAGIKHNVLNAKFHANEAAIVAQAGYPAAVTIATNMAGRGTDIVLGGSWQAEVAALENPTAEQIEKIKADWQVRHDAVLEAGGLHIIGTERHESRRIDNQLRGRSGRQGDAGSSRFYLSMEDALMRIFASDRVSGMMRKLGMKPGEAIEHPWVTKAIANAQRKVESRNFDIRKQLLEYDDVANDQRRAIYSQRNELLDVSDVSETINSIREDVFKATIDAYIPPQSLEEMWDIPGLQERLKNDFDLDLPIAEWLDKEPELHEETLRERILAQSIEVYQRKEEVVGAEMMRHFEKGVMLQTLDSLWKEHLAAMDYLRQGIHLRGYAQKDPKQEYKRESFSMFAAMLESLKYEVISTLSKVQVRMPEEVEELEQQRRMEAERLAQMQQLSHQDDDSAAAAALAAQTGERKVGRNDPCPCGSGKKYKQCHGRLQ
# EXPERIMENT_NOTES: Assay to Identify E. coli SecA ATPase Inhibitors
# Format: functional
# Design: scale not given: direction of the effect not stated beside the values
# CONDITIONS: 30 µM
Potency and affinity values are given separately.
Overview of recorded Percent Effect for various molecules
MEASUREMENT_TYPE: Percent Effect (%)

MOLECULE | READOUT_NUMBER
O=C(Cc1ccsc1)N1CCCC(c2n[nH]c3nccnc23)C1 (centres undefined) | -5.56
Cc1cnn(CC2CN(Cc3nccn3C)CCO2)c1 (centres undefined) | -2.86
O=C(CCc1nccs1)N1CCN(c2ncccn2)CC1 | -10.4
COc1ccc2c(c1)CCN(CCC(=O)NC1CCCCC1)CC2 | -1.36
N#CC1CCCN(c2nc(-c3ccccc3)nc3c2CCNCC3)C1 (centres undefined) | -2.62
CC(=O)Nc1nc(C(=O)N2CCCC2Cn2cc(C)cn2)cs1 (centres undefined) | -5.22
CCc1nnc2n1CCN(C(=O)c1ccc(-c3ccco3)nc1C)C2 | -6.22
COc1ncccc1NC(=O)N1CCC(CNC(C)=O)CC1 | -3.02
CC(C)(C)SCCCC(=O)N1CCC(Nc2cccnn2)CC1 | -1.17
Cn1ccnc1CNC1CCCN(Cc2noc(C3CC3)n2)C1 (centres undefined) | -1.62
Cn1ncc2c(=O)[nH]c(N3CCN(C(=O)c4ccsc4)CC3)nc21 | -5.57
COc1cc(C(=O)N(Cc2ccco2)C2CC2)cc2c1OCCO2 | -0.29
CCN(c1ccc(C(=O)N2CCCC(C)C2)cc1)S(=O)(=O)CC (centres undefined) | -1.59
CCC1=N[C@@]2(CC[C@@H]3CN(CC4CC4)C[C@@H]32)C(=O)N1C | -4.94
COCCn1nc(C(=O)N(C)Cc2cnn(C)c2)ccc1=O | -6.3
O=c1[nH]c2c(c(=O)n1C1CCCCC1)CCC2NCCc1ccccc1 (centres undefined) | -2.86
CC(=O)Nc1nc(CN2CCCC2c2cnn(C)c2)cs1 (centres undefined) | -7.62
Cc1ccc(C2CSCCN2C(=O)c2ccsc2)o1 (centres undefined) | -7.12
COCCOc1ccc(NC(=O)C2CC(=O)N(C)C2)cn1 (centres undefined) | 0.0993
O=C1OCCN1CCOc1nc(-c2ccccc2Cl)no1 | -6.78
Cc1nc(COC[C@@H]2CC[C@H]3[C@H](CCN3c3ncccn3)O2)cs1 | -0.526
O=C(NCc1cccs1)[C@H]1CC[C@@H]2[C@@H](CCN2c2ncccn2)O1 | -2.42
O=C(Cn1c(=O)n(Cc2ccco2)c2ncccc21)NC1CCCCC1 | -8.09
CC(=O)Nc1nc(C(=O)N2CCCC(n3nc(C)cc3C)C2)cs1 (centres undefined) | -5.42

----------
# Tested on: Trypanosoma cruzi
# EXPERIMENT_NOTES: Trypanosoma cruzi phosphomannomutase and mannose-1-phosphate guanylyltransferase assay
# Format: functional
# Set-up: scale not given: direction of the effect not stated beside the values
# CONDITIONS: 10 µM
MEASUREMENT_TYPE: Percent Effect (%)

COMPOUND | EXPERIMENTAL_SYSTEM | UNIT_ABBREV | READOUT_NUMBER
CN(C(=O)NCCCN1CCCC1)C1CCN(c2ccccc2)C1=O (centres undefined) | Trypanosoma cruzi | % | -7.71
O=C(Nc1ccc(F)c(Br)c1)N1CCCC1 | Trypanosoma cruzi | % | -4.49
CC(=O)N(C)CC(=O)Nc1cccc(N2CCN(CC3CC3)CC2)c1 | Trypanosoma cruzi | % | -1.86
C=C(C)CN(Cc1cccc(O)c1)C1CCC(O)CC1 (centres undefined) | Trypanosoma cruzi | % | -2.64
Cc1n[nH]c(C)c1C1CCCN1C(=O)NCC(=O)NC(C)(C)C (centres undefined) | Trypanosoma cruzi | % | -6.86
N#CC1CCCN(c2nc(-c3ccccc3)nc3c2CCNCC3)C1 (centres undefined) | Trypanosoma cruzi | % | -4.17
COc1cccc(-c2nc(C)c(C(=O)N[C@@H](C)C(=O)O)s2)c1 | Trypanosoma cruzi | % | -2.36
CCN(CC)C(=O)c1ccc(-c2ccsc2)nc1C | Trypanosoma cruzi | % | -4.37
CC(=O)N1CCOC(c2cc(N3CC(O)C3)nc(C)n2)C1 (centres undefined) | Trypanosoma cruzi | % | 0.394
CN1CCN(Cc2cccnc2)C2(CCN(c3ncc(F)cn3)C2)C1=O (centres undefined) | Trypanosoma cruzi | % | -0.885
CCOc1ncccc1CNC(=O)N1CCCC1c1cc(C)no1 (centres undefined) | Trypanosoma cruzi | % | -1.66
CC(C)Oc1cc(N2C[C@@H](C)O[C@@H](C)C2)nc(N)n1 | Trypanosoma cruzi | % | 0
Cc1nc(CN2C(=O)CCC23CCN(c2ncccn2)CC3)cs1 | Trypanosoma cruzi | % | 5.02
O=C1CCC2(CCN(c3ncc(F)cn3)CC2)N1CCN1CCCC1 | Trypanosoma cruzi | % | -2.07
COC(=O)C(c1cc(F)ccc1F)N(C)C(=O)c1csnn1 (centres undefined) | Trypanosoma cruzi | % | -5.64
Cc1ccc2c(ccn2CCC(=O)O)c1 | Trypanosoma cruzi | % | 1.07
O=c1nc(SCc2ccncc2)c2c(n1CCO)CCCC2 | Trypanosoma cruzi | % | 3.92
CN(C)CC1CN(C(=O)NCc2ccccc2)Cc2nccn2C1 (centres undefined) | Trypanosoma cruzi | % | -1.59
Cc1ccc(Nc2nccc(C3CN(CC(N)=O)C3)n2)nc1 | Trypanosoma cruzi | % | 7.12
COCCN1CCC2(CCN(Cc3nccs3)CC2)C1=O | Trypanosoma cruzi | % | -5.79
Cc1nc(C2CCCN(C(=O)c3ccc(Cn4cccn4)o3)C2)no1 (centres undefined) | Trypanosoma cruzi | % | -2.43
Cc1ccc(C)c(OC2CCN(C(=O)c3ccc(O)nc3)CC2)c1 | Trypanosoma cruzi | % | 3.76
CCCNC(=O)Cn1cc(-c2ccccc2)cn1 | Trypanosoma cruzi | % | -5.64
CCn1cc(NC(=O)NCC(C)O)cn1 (centres undefined) | Trypanosoma cruzi | % | -0.85
Cc1ccc(N2CC[C@H]3OCC[C@@]3(C(=O)NC(C)C)C2)nn1 | Trypanosoma cruzi | % | 2.15
c1ccc(OC[C@]23COC[C@H]2CN(c2ncccn2)C3)nc1 | Trypanosoma cruzi | % | 6.37
COCCN1C(=O)[C@]2(CC[C@@H]3CN(C(=O)NCC(C)C)C[C@@H]32)N=C1C | Trypanosoma cruzi | % | 5.41
CCc1cnc(N2CC3(CCN(C(=O)c4ccoc4)C3)C2)nc1 | Trypanosoma cruzi | % | -2.46
Cc1cnc2c(S(=O)(=O)NCC3CCS(=O)(=O)C3)cccc2c1 (centres undefined) | Trypanosoma cruzi | % | 6.26
Cc1cnccc1N1CCCN(C(=O)CCCc2cn[nH]c2)CC1 | Trypanosoma cruzi | % | 3.92
CCN1CCCn2c(nc(CNC(=O)c3ccsc3)cc2=O)C1 | Trypanosoma cruzi | % | -0.0978
CC1CN(CC(=O)Nc2nncs2)CCN1c1nccs1 (centres undefined) | Trypanosoma cruzi | % | -5.29
COc1ccc(C(=O)NCC(c2cccn2C)N2CCCC2)c(OC)c1 (centres undefined) | Trypanosoma cruzi | % | 1.08
CC(=O)N1CCN(CC2CCOc3ccccc3C2)CC1 (centres undefined) | Trypanosoma cruzi | % | -5.34
COc1ccc(CN2CCC3(CC2)CCN(c2ncccn2)CC3)cc1 | Trypanosoma cruzi | % | 5.57
Cc1nc(CN2CCCC(N(C)Cc3nnsc3Cl)C2)no1 (centres undefined) | Trypanosoma cruzi | % | 6.76
CC(=O)N1CCC(C(=O)c2cc(C)cnc2N)CC1 | Trypanosoma cruzi | % | 3.15
CN(C(=O)c1ccccc1Cl)C1CCN(c2ccccn2)CC1 | Trypanosoma cruzi | % | 6.95
CNC(=O)c1cnc(/C=C/c2cc(OC)c(OC)c(OC)c2)s1 | Trypanosoma cruzi | % | 1.56
CNC(=O)CC1CC2(CCN(Cc3nccs3)CC2)c2ccccc21 (centres undefined) | Trypanosoma cruzi | % | 3.52
CC(=O)N1CCCN(c2nccc(-c3cn(C)nc3C)n2)CC1 | Trypanosoma cruzi | % | 0.682
COc1ccc(CNCC2CC2)cc1F | Trypanosoma cruzi | % | 1.56
Cc1cccc(CN(Cc2ccc(C)o2)C2CC(C)(C)NC(C)(C)C2)n1 | Trypanosoma cruzi | % | -6.13
O=C(NCC1CCOC1)c1csc(-c2cccc(Cl)c2)n1 (centres undefined) | Trypanosoma cruzi | % | -5.24
Cc1cccc(-c2nc(CN3CCCCC3Cn3cncn3)no2)c1 (centres undefined) | Trypanosoma cruzi | % | 3.19
COc1cccc(OCCNC(=O)CN2CCN(C)CC2C)c1 (centres undefined) | Trypanosoma cruzi | % | 6.59
CC(NC(=O)CNCCn1cccn1)c1ccc2c(c1)OCCO2 (centres undefined) | Trypanosoma cruzi | % | 5.62
OC(CN1CCN(Cc2nnc(C3CC3)o2)CC1)c1ccccc1 (centres undefined) | Trypanosoma cruzi | % | -3.31
CCC(C(=O)NCc1ccncc1)N(c1ccc(OC)cc1)S(C)(=O)=O (centres undefined) | Trypanosoma cruzi | % | 4.97
